Cited source: patent US9181234B2

Assay: Pharmacokinetic assay, IV and oral PK profile, rat
Format: in vivo
Conditions: single intravenous dose 3 mg/kg, plasma, read-out: AUCiv
MEASUREMENT KIND: AUC (ng·h/mL)
Just the number please, in ng·h/mL, no unit attached.

>>> df
                                   molecule  units_symbol  endpoint_result
0  CCNC(=O)Nc1nc2cc(-c3ccc(N4CCC(C)(C(=O)O)CC4)nc3)cc(-c3ccccn3)c2s1 [Compound 4]       ng·h/mL             6600
1  CCNC(=O)Nc1nc2cc(-c3cnc(N4CCC(C)(C(=O)O)CC4)nc3)cc(-c3cscn3)c2s1 [Compound 21]       ng·h/mL             7100
2  CCNC(=O)Nc1nc2cc(-c3ccc(N4CCC(CC)(C(=O)O)CC4)nc3)cc(-c3ccccn3)c2s1 [Compound 103]       ng·h/mL            29000
3  CCNC(=O)Nc1nc2cc(-c3cnc(N4CCC(COC)(C(=O)O)CC4)nc3)cc(-c3ccccn3)c2s1 [Compound 141]       ng·h/mL             8300
4  C=CCC1(C(=O)O)CCN(c2ncc(-c3cc(-c4ccccn4)c4sc(NC(=O)NCC)nc4c3)cn2)CC1 [Compound 136]       ng·h/mL            36300
5  CCNC(=O)Nc1nc2cc(-c3cnc(N4CCC(CC)(C(=O)O)CC4)nc3)cc(-c3ccccn3)c2s1 [Compound 98]       ng·h/mL            27700
6  CCNC(=O)Nc1nc2c(F)c(-c3cnc(N4CCC(C)(C(=O)O)CC4)nc3)cc(-c3ccccn3)c2s1 [Compound 161]       ng·h/mL             4800

Task: Param item = CCNC(=O)Nc1nc2cc(-c3cnc(N4CCC(C(=O)O)(C5CC5)CC4)nc3)cc(-c3ccccn3)c2s1 [Compound 143] ; retrieve measured AUC.
Output: 46900
